Molecular target: CB1 receptor (Homo sapiens, UniProt P21554)
Sequence (P21554 whole entry): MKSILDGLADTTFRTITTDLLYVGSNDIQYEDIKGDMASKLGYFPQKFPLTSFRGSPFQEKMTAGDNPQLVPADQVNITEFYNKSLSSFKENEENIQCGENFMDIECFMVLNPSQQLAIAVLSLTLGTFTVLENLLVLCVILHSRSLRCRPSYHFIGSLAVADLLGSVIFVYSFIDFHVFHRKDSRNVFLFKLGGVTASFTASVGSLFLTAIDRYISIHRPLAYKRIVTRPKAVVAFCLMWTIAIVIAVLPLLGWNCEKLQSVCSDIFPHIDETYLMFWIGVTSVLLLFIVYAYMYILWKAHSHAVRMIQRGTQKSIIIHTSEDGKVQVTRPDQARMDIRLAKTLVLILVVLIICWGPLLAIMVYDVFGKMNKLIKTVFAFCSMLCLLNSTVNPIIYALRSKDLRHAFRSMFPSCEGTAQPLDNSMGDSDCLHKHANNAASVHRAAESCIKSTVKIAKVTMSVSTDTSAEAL
Experiment: cAMP formation inhibition experiment through a cannabinoid receptor (forskolin stimulation), CB1
Format: cell-based
Parameters: expressed in transfected cells; host or cells: CHO cells
Conditions: read-out: Agonist activity (nM) CB1

[
  {
    "smiles representation": "O=C(O)C1=C(NC(=O)c2cc3c(n(CC4CCCCC4)c2=O)CCCCCC3)CCCC1",
    "target or test system": "CB1 receptor (Homo sapiens, UniProt P21554)",
    "IC50 [nM]": 131
  },
  {
    "smiles representation": "CC(C)(NC(=O)c1cc2c(n(CC3CCCCC3)c1=O)CCCCCC2)C(=O)N1CCC(NS(C)(=O)=O)CC1",
    "target or test system": "CB1 receptor (Homo sapiens, UniProt P21554)",
    "IC50 [nM]": 397
  },
  {
    "smiles representation": "CCc1c(C)cc(C(=O)NCC2(CC(=O)O)CCCCC2)c(=O)n1Cc1ccc(F)cc1",
    "target or test system": "CB1 receptor (Homo sapiens, UniProt P21554)",
    "IC50 [nM]": 708
  }
]
